Biological target: GST-Xa-hAAK1 (Homo sapiens, UniProt Q2M2I8)
Construct: made in house
Sequence (Q2M2I8 whole entry): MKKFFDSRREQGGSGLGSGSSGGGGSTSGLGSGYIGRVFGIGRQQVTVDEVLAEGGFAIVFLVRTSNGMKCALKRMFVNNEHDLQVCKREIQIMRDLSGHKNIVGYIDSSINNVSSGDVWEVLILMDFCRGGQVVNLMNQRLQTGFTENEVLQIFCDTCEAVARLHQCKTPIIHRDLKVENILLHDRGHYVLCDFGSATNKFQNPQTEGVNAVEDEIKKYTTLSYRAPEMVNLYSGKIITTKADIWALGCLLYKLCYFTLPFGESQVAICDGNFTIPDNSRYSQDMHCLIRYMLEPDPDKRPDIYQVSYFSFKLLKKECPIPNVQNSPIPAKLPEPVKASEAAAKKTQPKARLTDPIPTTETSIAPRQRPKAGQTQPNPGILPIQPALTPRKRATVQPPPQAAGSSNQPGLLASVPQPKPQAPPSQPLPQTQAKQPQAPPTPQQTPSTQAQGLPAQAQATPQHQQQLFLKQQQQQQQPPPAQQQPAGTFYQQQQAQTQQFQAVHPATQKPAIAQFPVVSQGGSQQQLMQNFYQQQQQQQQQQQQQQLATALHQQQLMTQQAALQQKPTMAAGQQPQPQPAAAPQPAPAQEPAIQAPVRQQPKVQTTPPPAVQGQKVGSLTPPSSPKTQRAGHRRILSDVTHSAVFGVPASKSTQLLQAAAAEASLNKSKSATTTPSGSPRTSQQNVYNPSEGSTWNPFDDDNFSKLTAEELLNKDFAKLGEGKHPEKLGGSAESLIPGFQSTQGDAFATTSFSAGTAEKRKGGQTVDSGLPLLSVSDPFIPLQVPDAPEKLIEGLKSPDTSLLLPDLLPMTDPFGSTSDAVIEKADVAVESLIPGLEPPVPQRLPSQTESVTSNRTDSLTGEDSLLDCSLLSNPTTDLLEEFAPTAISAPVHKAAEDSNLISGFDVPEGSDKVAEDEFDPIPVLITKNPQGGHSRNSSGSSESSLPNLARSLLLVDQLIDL
Assay: AAK1 kinase assay
Type: biochemical
Conditions: ATP 22 μM; given as IC50 range
pIC50: −log10 of the molar value.
Documented pIC50 across a set of molecules

A selection of reference data follows.
molecule | assayed.system | result
CC(C)NCC(O)COc1cc2c(cc1Br)c1ccncc1c(=O)n2C (centres unmarked) | GST-Xa-hAAK1 (Homo sapiens, UniProt Q2M2I8) | 5.70 to 7.00
CC(C)C[C@H](N)COc1cc2c(cc1C(F)F)c1ccncc1c(=O)n2C | GST-Xa-hAAK1 (Homo sapiens, UniProt Q2M2I8) | 8.00 to 9.00
Cc1cc2c(cc1OC[C@@H](N)CC(C)C)[nH]c(=O)c1cnccc12 | GST-Xa-hAAK1 (Homo sapiens, UniProt Q2M2I8) | 8.00 to 9.00
Cc1nccc2c1c(=O)n(C)c1cc(OCC(N)CC(F)(F)F)c(Br)cc21 (centres unmarked) [Example 137] | GST-Xa-hAAK1 (Homo sapiens, UniProt Q2M2I8) | 8.00 to 9.00
Cn1c(=O)c2c(N)nccc2c2ccc(OCC(N)CCC(F)(F)F)cc21 (centres unmarked) | GST-Xa-hAAK1 (Homo sapiens, UniProt Q2M2I8) | 8.00 to 9.00
Cc1nccc2c1c(=O)n(C)c1cc(OCC(N)CC(C)C(F)(F)F)ccc21 (single isomer, unassigned) [Example 87] | GST-Xa-hAAK1 (Homo sapiens, UniProt Q2M2I8) | 8.00 to 9.00
Cc1nccc2c1c(=O)n(C)c1cc(OC[C@@H](N)CC(C)C)c(C(C)C)cc21 [Example 129] | GST-Xa-hAAK1 (Homo sapiens, UniProt Q2M2I8) | 8.00 to 9.00

**Q:** Tell me its pIC50 given CC(C)C[C@H](N)COc1c(Cl)cc2c3ccncc3c(=O)n(C)c2c1Cl as the entry.
**A:** 7.00 to 8.00

---

Below: a set of entries, each annotated with reported IC50.
Target: GST-Xa-hAAK1 (Homo sapiens)
Construct: made in house
Assay: AAK1 kinase assay
Format: biochemical
Conditions: ATP 22 μM; 3 hours at room temperature
Write the value in µM as a bare number.

molecule | value.kind | result
Cc1nccc2c1c(=O)n(C)c1cc(OC[C@H](N)CC(C)C)c(Br)cc21 | IC50 | 0.0004
Cc1nccc2c1c(=O)n(C)c1cc(OCC(O)CNC(C)C)ccc21 (stereo not drawn) | IC50 | 1.33

**Q:** Give the reported IC50 for this molecule. Cn1c(=O)c2cnccc2c2cc(C#N)c(OCC(N)CCC(F)(F)F)cc21 (stereo not drawn)
**A:** 0.016

---

Reported pIC50 by item:
Biological target: GST-Xa-hAAK1 (Homo sapiens, UniProt Q2M2I8)
Construct: made in house
Assay: AAK1 kinase assay
Assay type: biochemical
Conditions: ATP 22 μM; given as IC50 range
pIC50: −log10 of the molar value.

molecule | pIC50
Cc1nccc2c1c(=O)n(C)c1cc(OCC(N)CCC(F)(F)F)c(Br)cc21 (centres unmarked) | > 9.00
Cc1nccc2c1c(=O)n(CCO)c1cc(OC[C@@H](N)CC(C)C)c(Cl)cc21 | > 9.00
Cn1c(=O)c2cnccc2c2cc(-c3cnco3)c(OCC(N)CCC(F)(F)F)cc21 (centres unmarked) | 8.00 to 9.00
Cc1nccc2c1c(=O)n(C)c1cc(OCC(N)CC(F)(F)F)c(Br)cc21 (single isomer, unassigned) [Example 139] | > 9.00
Cn1c(=O)c2cnccc2c2ccc(OCC(N)CCC(F)(F)F)cc21 (centres unmarked) [Example 111] | 8.00 to 9.00
CN[C@H](COc1cc2c(cc1C#N)c1ccnc(C)c1c(=O)n2C)CC(C)C | > 9.00

**Q:** Given Cn1c(=O)c2cnccc2c2ccc(OCC(N)CCC(F)(F)F)cc21 (centres unmarked) [Example 112] , respond with its pIC50.
**A:** 8.00 to 9.00

**Q:** Answer with the recorded pIC50 of COc1ccc2c3ccnc(C)c3c(=O)n(C)c2c1 only.
**A:** 5.70 to 7.00
